Tested on: HOP-62 NSCLC
Test: NCI-60 one-dose screen, 48 h (100 = growth as untreated, 0 = no growth, -100 = all killed)
Settings: 10 µM unless noted
Compounds without any hit were thinned out: in the full panel of roughly 83,000, 20% have a hit.
measurement-type: growth (%)
Report the figure in % without appending any unit label.

The recorded growth for O=c1c2ccccc2nc(COc2ccccc2)n1NS(=O)(=O)c1ccc(Cl)cc1 is 75

The recorded growth for O=C(Nc1ccc2c(ccn2Cc2ccccn2)c1)c1ccnnc1 is 76.4

The recorded growth for O=C(Nc1ccc2c(ccn2Cc2ccccn2)c1)c1cnccn1 is 72.7

The recorded growth for COc1cc(-c2nc(SC(C)C)n(C(C)C)c(=O)c2C#N)ccc1OCc1ccccc1 is 79

The recorded growth for NC(N)=Nc1ccc(Oc2cccc(NC(N)=Nc3ccc(Cl)c(C(F)(F)F)c3)c2)cc1 is 60.4

The recorded growth for O=C(NNc1nc2cc(F)c(F)cc2n2cccc12)c1cnccn1 is 24.8

The recorded growth for N#Cc1cnc2ccc(-c3cnc4[nH]ncc4c3)cc2c1N1CCc2cc(F)c(Cl)cc21 is 3.97

The recorded growth for CN1c2ccccc2Sc2cc(C=C(C#N)C#N)ccc21 is 90.4

The recorded growth for CN1CCN(Cc2ccc(NC(=O)c3cncc(C#Cc4cnn5cccnc45)c3)cc2C(F)(F)F)CC1 is 10.2

The recorded growth for COc1cc(/C=C/C(=O)c2ccc(NC(=O)CSc3nnc(-c4ccc(-c5nc6ccc(Cl)cc6[nH]5)cc4)o3)cc2)cc(OC)c1OC is 89.8
